Reference for the values: patent US9187496B2

- Tested on: Huh-7 cells containing HCV Con1 subgenomic replicon (GS4.1 cells)
- method notes: HCV replicon assay (NS5A ELISA)
- Assay type: cell-based
- condition notes: Hepatitis C virus, Huh-7; GS4.1 cells, 72 hrs, NS5A ELISA; read-out: EC50
// EC50 lookup, one value per entry

Q: Could you tell me which EC50 is on file for COC(=O)N[C@H](C(=O)N1CCCC1c1nc(-c2ccc(-c3cn4cc(-c5ccc(-c6cnc([C@@H]7CCCN7C(=O)[C@@H](NC(=O)OC)C(C)C)[nH]6)cc5)sc4n3)cc2)c[nH]1)C(C)C (stereo partly shown) ?
Ans: < 0.001 µM

Q: // query EC50 value for entry COC(=O)N[C@H](C(=O)N1CCC[C@H]1C(=O)Nc1ccc(-c2cn3cc(NC(=O)C4CCCN4C(=O)[C@@H](NC(=O)OC)C(C)C)nc3s2)cc1)c1ccccc1 (stereo partly shown)
Ans: < 0.001 µM

Q: Find the recorded EC50 belonging to CC(C)(C)OC(=O)N[C@@H](C(=O)N1CCOC[C@H]1C(=O)Nc1cn2cc(-c3ccccc3)sc2n1)c1ccccc1 and report it.
Ans: > 0.1 µM

----------
Quick reference: EC50 of the listed items.
- Test system: Huh-7 cells containing HCV Con1 subgenomic replicon (GS4.1 cells)
- method notes: HCV replicon assay (NS5A ELISA)
- Type: cell-based
- condition notes: Hepatitis C virus, Huh-7; GS4.1 cells, 72 hrs, NS5A ELISA; read-out: EC50

COC(=O)N[C@H](C(=O)N1CCCC1c1ncc(-c2ccc(-c3ccc(-c4nc5sccn5c4Cl)cc3)cc2)[nH]1)C(C)C (some centres unmarked); 10 to 100 nM
COC(=O)N[C@H](C(=O)N1CCCC1c1cc(-c2ccc(-c3csc4c(-c5ccc(-c6cnc(C7CCCN7C(=O)[C@@H](NC(=O)OC)C(C)C)[nH]6)cc5)csc34)cc2)[nH]n1)C(C)C (some centres unmarked); < 1 nM
COC(=O)N[C@H](C(=O)N1CCCC1c1ncc(-c2cn3cc(-c4ccc(-c5cnc([C@@H]6CCCN6C(=O)[C@@H](NC(=O)OC)C(C)C)[nH]5)cc4)nc3s2)[nH]1)C(C)C (some centres unmarked); < 1 nM
COC(=O)N[C@H](C(=O)N1CCC[C@H]1c1cc(-c2ccc(-c3cn4cc(NC(=O)[C@@H]5CCCN5C(=O)[C@H](NC(=O)OC(C)C)c5ccccc5)nc4s3)cc2)[nH]n1)C(C)C; < 1 nM

Q: Fill in the blank: the reported EC50 of COC(=O)N[C@H](C(=O)N1CCC[C@H]1C(=O)Nc1cn2cc(-c3ccc(NC(=O)CNC(=O)[C@H](NC(=O)OC(C)(C)C)c4ccccc4)cc3)sc2n1)C(C)C is ____.
Ans: 10 to 100 nM

----------
- method notes: Cytotoxicity evaluation in GS4.1 cells (Cell Titer 96 AQueous One)
- Type: cell-based, human
- condition notes: human, cellular viability
Below is a list of entries, each paired with its recorded CC50 value.

COC(=O)N[C@H](C(=O)N1CCC[C@H]1c1ncc(-c2ccc(-c3csc4c(-c5cnc([C@@H]6CCCN6C(=O)[C@@H](NC(=O)OC)C(C)C)[nH]5)csc34)cc2)[nH]1)C(C)C [Compound A15]; 10 to 75 µM

Q: I would be grateful if you could share the reported CC50 for COC(=O)N[C@H](C(=O)N1CCC[C@H]1c1nc(-c2ccc(-c3csc4c(Br)csc34)cc2)c[nH]1)C(C)C [Compound A155] .
Ans: 10 to 75 µM

Q: Please look up its CC50: COC(=O)N[C@H](C(=O)N1CCC[C@H]1c1ncc(-c2ccc(-c3csc4c(-c5ccc(-c6cnc([C@@H]7CCCN7C(=O)[C@@H](NC(=O)OC)C(C)C)[nH]6)cc5)csc34)cc2)[nH]1)C(C)C [Compound A86]
Ans: 10 to 75 µM

Q: Could you share which CC50 value was measured for COC(=O)N[C@@H](C(=O)N1CCCC1c1ncc(-c2cn3cc(-c4ccc(-c5cnc([C@@H]6CCCN6C(=O)[C@H](NC(=O)OC)c6ccccc6)[nH]5)cc4)nc3s2)[nH]1)c1ccccc1 (stereo partly shown) [A60] ?
Ans: > 75 µM
